List of IC50 tested on NAD-dependent protein deacetylase sirtuin-1 (Homo sapiens, UniProt Q96EB6).
Sequence (Q96EB6 whole entry): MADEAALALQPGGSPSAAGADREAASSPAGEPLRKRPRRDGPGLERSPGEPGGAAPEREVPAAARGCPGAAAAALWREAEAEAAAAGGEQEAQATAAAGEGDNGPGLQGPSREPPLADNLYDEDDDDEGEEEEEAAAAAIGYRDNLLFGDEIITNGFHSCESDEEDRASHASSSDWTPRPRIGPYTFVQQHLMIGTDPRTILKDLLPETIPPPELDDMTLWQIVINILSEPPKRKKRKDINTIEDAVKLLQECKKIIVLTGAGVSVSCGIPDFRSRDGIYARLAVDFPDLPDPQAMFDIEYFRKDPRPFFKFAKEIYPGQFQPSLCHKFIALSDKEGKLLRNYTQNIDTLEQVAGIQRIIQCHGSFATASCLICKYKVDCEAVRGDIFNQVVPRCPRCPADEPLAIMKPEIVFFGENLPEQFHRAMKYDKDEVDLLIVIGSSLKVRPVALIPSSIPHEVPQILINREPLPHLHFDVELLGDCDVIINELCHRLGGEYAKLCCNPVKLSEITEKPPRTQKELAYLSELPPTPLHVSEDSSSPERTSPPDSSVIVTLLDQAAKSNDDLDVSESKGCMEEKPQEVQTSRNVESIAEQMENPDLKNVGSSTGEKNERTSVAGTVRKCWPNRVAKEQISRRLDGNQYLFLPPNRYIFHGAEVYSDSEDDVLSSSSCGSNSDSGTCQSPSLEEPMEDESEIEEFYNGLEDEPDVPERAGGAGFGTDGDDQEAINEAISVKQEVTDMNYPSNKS
Readout Label: IC50 (µM)

A = CC1(C)CC(=O)C2=C(C1)N(Nc1ccccc1)C1=C(C(=O)CC(C)(C)C1)C2c1cccc(OCc2ccccc2)c1
B = CC1(C)CC(=O)C2=C(C1)N(Nc1ccc([N+](=O)[O-])cc1[N+](=O)[O-])C1=C(C(=O)CC(C)(C)C1)C2c1ccccc1OCc1ccccc1
q: Return label of the item with the larger IC50. Candidates: A , B . When you have decided, please share the label of that item.
a: A
